Experiment: pH of peptide solutions in DMSO/D5W, with succinate, and with Hiltonol
Format: physicochemical
# if value of pH of peptides in DMSO/D5W reaches 4, tag Condition met; if it stays below, tag Condition not met

Challenge: State whether the measured pH of peptides in DMSO/D5W reaches 4, counting equality as reaching it, for H-LRVFIGNIAVNHAPVSLRPGLGLPPGAPPGTVP-OH [CS7412]
Response given: Condition met

Challenge: Textbook exercise: given the entry H-KKNITNLSRLVVRPDTDAVY-OH [CS7431] , state whether its pH of peptides in DMSO/D5W is greater than or equal to 4.
Response given: Condition not met

Challenge: Check the entry H-WDGPPENDMLLKEICGSLIP-OH [CS7432] : does pH of peptides in DMSO/D5W equal or exceed 4?
Response given: Condition not met

Challenge: hey, is pH of peptides in DMSO/D5W for this one >= 4? H-SYDSVIRELLQKPNVRVVVL-OH [CS7425]
Response given: Condition not met

Challenge: API: above_or_equal(metric=pH of peptides in DMSO/D5W, cutoff=4) for item H-KLAWRGRISSSGCPSMTSPPSPMFGMTLHT-OH [CS6919]
Response given: Condition met

Challenge: Confirm if pH of peptides in DMSO/D5W reported for the substance H-LPVFIGNIAVNHAPVSLRPGLGLPPGAPPGTVP-OH [CS7438] is 4 or above.
Response given: Condition met

Challenge: Is it the case that H-PIQVFYTKQPQNDYLHVALVSVFQIHQEAPSSQ-OH [CS6729] has pH of peptides in DMSO/D5W reaching or exceeding 4?
Response given: Condition not met

Challenge: Decide: pH of peptides in DMSO/D5W of H-VAGLAASGLHGSAWLVPGEQPVSGPHHGKQ-OH [CS6931] >= 4?
Response given: Condition not met

Challenge: Entry H-RGLHSQGLGRGRIAMAQTAGVLRSLEQEE-OH [CS6711] : is its pH of peptides in DMSO/D5W no less than 4?
Response given: Condition not met

Challenge: hey, is pH of peptides in DMSO/D5W for this one >= 4? H-EPDQEAVQSSTYKDCNTLHLPTERFSPVR-OH [CS6710]
Response given: Condition not met

Challenge: # check: pH of peptides in DMSO/D5W of H-IGALNPKRAAFFAEHYESWE-OH [CS7420] is greater than or equal to 4
Response given: Condition not met

Challenge: Record H-DSAVDKGHPNRSALSLTPGLRIGPSGLFLVFLA-OH [CS7411] ; criterion: pH of peptides in DMSO/D5W no lower than 4. Met?
Response given: Condition not met

Challenge: Tell me whether pH of peptides in DMSO/D5W is at least 4 here: H-LLTDRNTSGTTFTLLGVSDYPELQVP-OH [CS7409]
Response given: Condition not met

Challenge: Textbook exercise: given the entry H-SKRGVGAKTLLLPDPFLFWPCLEGTRRSL-OH [CS6934] , state whether its pH of peptides in DMSO/D5W is greater than or equal to 4.
Response given: Condition not met

Challenge: Please tell me: is the substance H-SGQPAPEETVLFLGLLHGLLLILRRLRGG-OH [CS6937] at or over 4 in terms of pH of peptides in DMSO/D5W?
Response given: Condition not met
